The reported measurements were obtained from PubChem BioAssay (NCI).

Reported growth by item:
Tested on: HL-60(TB) leukemia
Assay: NCI-60 one-dose screen, 48 h (100 = growth as untreated, 0 = no growth, -100 = all killed)
Conditions: 10 µM unless noted
The panel holds about 83,000 compounds, 20% with a hit somewhere; the sample as a whole holds those more often.
Write it as a number; the unit % goes unstated.

CC(=O)c1c(O)c(C)c(O)c2c1OC1=CC(=O)/C(=C(/C)N)C(=O)C12C (stereo unspecified) | 84.4
O=C1NC(=O)N(Cc2ccccc2)CC1Br (stereo unspecified) | 56.4
O=C1/C(=C/c2ccc(O)cc2O)N=C2SCCCN12 | 100

Entry C=CC(=O)Nc1cccc(-c2nc(SC)nc(Nc3ccccc3OC)c2C#N)c1 , growth reported as 14.1

Entry COC(=O)c1c2c(c(C)[n+]([O-])c1C)C(=O)C(NCc1ccc(Cl)cc1)=CC2=O , growth reported as 80.3

Entry N#C/C(=C\c1ccc(-c2ccc(Br)cc2)o1)c1nc(-c2ccco2)cs1 , growth reported as 89.3

###

System: HL-60(TB) leukemia
Assay: NCI-60 one-dose screen, 48 h
Conditions: 10 µM unless noted
This is part of a sample that, as a whole, favours compounds with a hit. Of some 83,000 tested, about 20% had one in any assay. Active and inactive are the calls of the source. The calls were made as follows: active = growth percent below 10; inactive = the rest.
The reply should name one outcome from active, inactive

Cc1nssc1=S | inactive
O=C(NCCc1ccc(O)c(O)c1)C12CC3CC(CC(C3)C1)C2 | inactive
COc1ccc(-n2ncn(CCCCCCn3cnn(-c4ccc(OC)cc4)c3=O)c2=O)cc1 | inactive
COc1ccc2nc3cc(Cl)ccc3c(NCCCNC(C)=O)c2c1 | inactive
C[N+](C)(C)c1ncnc2nc[nH]c12 | inactive

### Prompt Hi team, can someone confirm the assay call for O=C(NCc1cn(Cc2cccc(Oc3ccccc3)c2)nn1)c1cccnc1Nc1ccccc1 ?
### Response inactive

### Prompt Hi team, can someone confirm the assay call for CN1CCN(Cc2ccc(NC(=O)c3[nH]ncc3Nc3ncnc4[nH]ccc34)cc2)CC1 ?
### Response active

### Prompt Hi team, can someone confirm the assay call for Nc1ncnc2c1c(-c1ccc(Oc3ccccc3)cc1)nn2C[C@@H]1SSC[C@H]1O ?
### Response active

### Prompt Hi team, can someone confirm the assay call for CC(C)(O)C1CCCN1C(=O)c1ccccc1I (configuration not stated) ?
### Response inactive

###

Tested on: HL-60(TB) leukemia
Assay: NCI-60 one-dose screen, 48 h (100 = growth as untreated, 0 = no growth, -100 = all killed)
Conditions: 10 µM unless noted
About 83,000 compounds went through this panel and 20% of them were active in at least one assay; those are over-represented in the sample as a whole.
metric: growth (%)
Write it as a number; the unit % goes unstated.

Sample answers from the record:
C[C@@H](c1ccc2c(c1)[nH]c1ccc(Cl)cc12)c1nc2ccccc2[nH]1 | 91.3
CCN1C(=O)N(CC)C2C1NN=c1s/c(=C\c3cccnc3)c(=O)n12 (stereo not given) | -27.5

Entry CC(C)(C)c1ccc(Cn2cc(CSc3nc4ccccc4s3)nn2)cc1 , growth reported as 93.7

Entry O=C(CCCCCCSc1nc(-c2ccc(Cl)cc2)cc(-c2ccc(Cl)cc2)n1)NO , growth reported as 9.99

Entry CN(C)c1ccc(N=Nc2ccccn2)c(O)c1 , growth reported as -36.3
